method.summary: Cytotoxicity against human HOS cells
Assay type: cell-based
readout.kind: CC50 (µM)
Report as a plain number; the unit µM is understood.

• CN(C)CCCn1c(CN(C)C2CCCc3cccnc32)nc2ccccc21 (configuration not stated) = 16.8
• CN(Cc1nc2c(CCCN)cccc2[nH]1)C1CCCc2cccnc21 (configuration not stated) = 10

Please turn your attention to the following entry.
Q: Entry under review: CN1CCN(c2cccc3nc(CN(C)[C@H]4CCCc5cccnc54)[nH]c23)CC1 . Reported CC50?
A: 12.5

====

test.system: C-X-C chemokine receptor type 4 (Homo sapiens)
method.summary: Antagonist activity at CXCR4 by noncompetitive binding assay
Activity calls are given as the source filed them. The calls are words filed in the database; no cut-off is given here.
readout.kind: Activity

Examples with answers:
* CN(Cc1nc2cccc(CCCN3CCCC3)c2[nH]1)C1CCCc2cccnc21 (configuration not stated) | Active
* CN(Cc1nc2cccc(C(=O)N3CCNCC3)c2[nH]1)C1CCCc2cccnc21 (configuration not stated) | Active
* CN(Cc1nc2cccc(C(=O)NCCN)c2[nH]1)C1CCCc2cccnc21 (configuration not stated) | Active
* CN(Cc1nc2cccc(N3CCNCC3)c2[nH]1)C1CCCc2cccnc21 (configuration not stated) | Active

Q: Entry under review: CN(Cc1nc2ccccc2n1CCN)C1CCCc2cccnc21 (configuration not stated) . Reported Activity?
A: Active

Q: Entry under review: CN(Cc1nc2ccccc2n1CCCCN)C1CCCc2cccnc21 (configuration not stated) . Reported Activity?
A: Active

Q: Entry under review: CN(Cc1nc2ccccc2[nH]1)C1CCCc2cccnc21 (configuration not stated) . Reported Activity?
A: Active

====

method.summary: Cytotoxicity against human HOS cells
Type: cell-based
readout.kind: CC50

Examples with answers:
* CN(Cc1nc2c(N3CCNCC3)cccc2[nH]1)C1CCCc2cccnc21 (stereo unspecified) | > 20 µM
* CN(Cc1nc2ccccc2n1CCCCCN)C1CCCc2cccnc21 (stereo unspecified) | 4.5 µM
* CN(Cc1nc2c(CNCCc3c[nH]cn3)cccc2[nH]1)C1CCCc2cccnc21 (stereo unspecified) | > 20 µM
* CN(Cc1nc2cccc(CN)c2[nH]1)C1CCCc2cccnc21 (stereo unspecified) | > 20 µM
* CN(Cc1nc2ccccc2n1CCCCN)C1CCCc2cccnc21 (stereo unspecified) | 2.9 µM

Q: Entry under review: CN(Cc1nc2cccc(C(=O)NCCCN)c2[nH]1)C1CCCc2cccnc21 (stereo unspecified) . Reported CC50?
A: > 20 µM

Q: Entry under review: CN(Cc1nc2ccccc2n1CCCN)C1CCCc2cccnc21 (stereo unspecified) . Reported CC50?
A: > 20 µM

====

method.summary: Cytotoxicity against human HOS cells
Format: cell-based
readout.kind: CC50 (µM)
Report as a plain number; the unit µM is understood.

* CN(Cc1nc2c(CCCN3CCCCC3)cccc2[nH]1)C1CCCc2cccnc21 (stereo not given) | 8.7
* CN(Cc1nc2ccccc2n1CCCNC(=O)C(F)(F)F)C1CCCc2cccnc21 (stereo not given) | 10.4
* CN(Cc1nc2ccccc2[nH]1)C1CCCc2cccnc21 (stereo not given) | 5.3

Q: Entry under review: CN(C)CCCc1cccc2[nH]c(CN(C)C3CCCc4cccnc43)nc12 (stereo not given) . Reported CC50?
A: 7.5

Q: Entry under review: CN1CCN(c2cccc3nc(CN(C)[C@@H]4CCCc5cccnc54)[nH]c23)CC1 . Reported CC50?
A: 12.3

Q: Entry under review: CN(Cc1nc2c(CCCN3CCCC3)cccc2[nH]1)C1CCCc2cccnc21 (stereo not given) . Reported CC50?
A: 8.2

====

# CC50 values compiled below
method.summary: Cytotoxicity against human HOS cells
Assay type: cell-based

Q: Entry under review: CN(Cc1nc2cccc(C(=O)NCCc3cnc[nH]3)c2[nH]1)C1CCCc2cccnc21 (centres undefined) . Reported CC50?
A: > 10 µM

Q: Entry under review: CN1CCN(C(=O)c2cccc3[nH]c(CN(C)C4CCCc5cccnc54)nc23)CC1 (centres undefined) . Reported CC50?
A: > 10 µM

Q: Entry under review: CN(Cc1nc2cccc(C(=O)N3CCNCC3)c2[nH]1)C1CCCc2cccnc21 (centres undefined) . Reported CC50?
A: > 20 µM

Q: Entry under review: CN(Cc1nc2c(C(=O)NCCN)cccc2[nH]1)C1CCCc2cccnc21 (centres undefined) . Reported CC50?
A: > 10 µM

====

method.summary: Cytotoxicity against human HOS cells
Format: cell-based
# CC50 values compiled below
Report as a plain number; the unit µM is understood.

* CN(Cc1nc2c(CN3CCNCC3)cccc2[nH]1)C1CCCc2cccnc21 (centres undefined) | 12

Q: Entry under review: CN1CCN(c2cccc3nc(CN(C)C4CCCc5cccnc54)[nH]c23)CC1 (racemic) . Reported CC50?
A: 14

====

method.summary: Cytotoxicity against human HOS cells
Type: cell-based
readout.kind: CC50

- NCCCCN(Cc1nc2ccccc2[nH]1)[C@H]1CCCc2cccnc21: > 10 µM
- CN(Cc1nc2cccc(N3CCN(C(=O)OC(C)(C)C)CC3)c2[nH]1)C1CCCc2cccnc21 (centres undefined): > 10 µM
- CN(Cc1nc2ccccc2n1CCN)C1CCCc2cccnc21 (centres undefined): > 20 µM

Q: Entry under review: CN(Cc1nc2ccccc2n1CCCNC(=N)N)C1CCCc2cccnc21 (centres undefined) . Reported CC50?
A: > 20 µM
